Just for reference, patent US20170355757A1 is where these values come from.

Biological target: T1, monkey C5-mmh (monkey, UniProt P01031 19-1676 (human entry), limits assumed)
T1 construct: Recombinant monkey C5 with a C-terminal myc-myc-hexahistidine tag
T1 chain: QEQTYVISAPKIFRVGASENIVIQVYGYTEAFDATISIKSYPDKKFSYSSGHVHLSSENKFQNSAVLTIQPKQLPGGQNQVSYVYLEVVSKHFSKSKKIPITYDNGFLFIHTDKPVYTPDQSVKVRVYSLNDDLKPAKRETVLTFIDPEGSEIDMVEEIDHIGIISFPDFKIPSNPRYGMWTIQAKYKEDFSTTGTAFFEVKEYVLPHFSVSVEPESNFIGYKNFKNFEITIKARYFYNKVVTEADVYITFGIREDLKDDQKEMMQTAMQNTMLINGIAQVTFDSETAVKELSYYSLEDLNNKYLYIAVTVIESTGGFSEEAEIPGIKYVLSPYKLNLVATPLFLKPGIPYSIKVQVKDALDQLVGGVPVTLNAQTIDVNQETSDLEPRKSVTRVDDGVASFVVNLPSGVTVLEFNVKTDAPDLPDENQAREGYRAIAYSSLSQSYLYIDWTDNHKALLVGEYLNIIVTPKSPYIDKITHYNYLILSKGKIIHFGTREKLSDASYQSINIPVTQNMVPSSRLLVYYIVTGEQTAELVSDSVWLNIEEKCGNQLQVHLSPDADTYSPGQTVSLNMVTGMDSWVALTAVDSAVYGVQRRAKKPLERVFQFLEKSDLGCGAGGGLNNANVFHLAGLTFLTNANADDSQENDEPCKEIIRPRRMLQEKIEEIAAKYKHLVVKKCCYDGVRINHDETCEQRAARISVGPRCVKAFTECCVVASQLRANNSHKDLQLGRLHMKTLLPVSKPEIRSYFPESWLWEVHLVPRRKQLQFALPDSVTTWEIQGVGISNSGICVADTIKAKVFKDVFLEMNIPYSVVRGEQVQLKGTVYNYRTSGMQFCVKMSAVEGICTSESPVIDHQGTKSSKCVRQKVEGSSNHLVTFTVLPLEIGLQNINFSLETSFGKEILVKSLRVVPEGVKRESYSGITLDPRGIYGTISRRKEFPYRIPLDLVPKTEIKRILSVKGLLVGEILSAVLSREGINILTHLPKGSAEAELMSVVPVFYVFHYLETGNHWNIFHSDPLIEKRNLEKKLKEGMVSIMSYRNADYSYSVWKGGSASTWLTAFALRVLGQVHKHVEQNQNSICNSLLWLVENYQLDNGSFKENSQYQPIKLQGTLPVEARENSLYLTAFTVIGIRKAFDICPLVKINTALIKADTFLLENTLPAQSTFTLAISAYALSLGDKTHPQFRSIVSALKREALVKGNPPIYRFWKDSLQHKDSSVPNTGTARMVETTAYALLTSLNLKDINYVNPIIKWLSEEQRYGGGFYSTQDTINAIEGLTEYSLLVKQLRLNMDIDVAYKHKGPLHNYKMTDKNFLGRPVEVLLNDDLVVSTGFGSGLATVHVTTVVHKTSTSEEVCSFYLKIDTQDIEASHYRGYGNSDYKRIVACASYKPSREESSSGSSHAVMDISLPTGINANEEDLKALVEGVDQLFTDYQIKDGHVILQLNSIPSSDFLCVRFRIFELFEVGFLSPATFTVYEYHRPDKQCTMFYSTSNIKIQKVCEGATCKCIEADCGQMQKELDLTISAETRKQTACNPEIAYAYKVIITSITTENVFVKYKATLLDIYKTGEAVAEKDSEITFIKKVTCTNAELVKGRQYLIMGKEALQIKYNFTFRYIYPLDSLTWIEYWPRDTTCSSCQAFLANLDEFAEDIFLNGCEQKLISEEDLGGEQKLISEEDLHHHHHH
Assay: SPR, mAb captured via anti-hFc, 37C
ASSAY_ENDPOINT: t1/2 (min)

{"BINDER": "H4H12170P (antibody, human IgG4, V domains shown, Human IgG4 Fc with S108P hinge mutation (H4H)) VH: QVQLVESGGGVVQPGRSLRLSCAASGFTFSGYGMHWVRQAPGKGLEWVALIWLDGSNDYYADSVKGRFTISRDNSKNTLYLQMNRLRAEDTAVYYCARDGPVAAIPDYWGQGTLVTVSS VL: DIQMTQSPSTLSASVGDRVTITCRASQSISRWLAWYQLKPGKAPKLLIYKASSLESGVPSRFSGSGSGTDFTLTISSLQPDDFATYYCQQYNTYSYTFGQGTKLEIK", "ASSAY_ENDPOINT": "t1/2", "READOUT_VALUE": 13}
{"BINDER": "H4H12164P (antibody, human IgG4, V domains shown, Human IgG4 Fc with S108P hinge mutation (H4H)) VH: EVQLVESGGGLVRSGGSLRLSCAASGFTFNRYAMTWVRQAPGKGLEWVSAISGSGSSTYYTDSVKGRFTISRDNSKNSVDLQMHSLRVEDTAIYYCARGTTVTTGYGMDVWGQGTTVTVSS VL: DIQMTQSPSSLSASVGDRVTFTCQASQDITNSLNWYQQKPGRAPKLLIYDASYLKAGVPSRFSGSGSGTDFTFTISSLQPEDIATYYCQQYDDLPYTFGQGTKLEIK", "ASSAY_ENDPOINT": "t1/2", "READOUT_VALUE": 10}
{"BINDER": "H4H12167P (antibody, human IgG4, V domains shown, Human IgG4 Fc with S108P hinge mutation (H4H)) VH: QVQLVESGGGLVKPGGSLRLSCAASGFTFSDSYMSWIRQAPGKGLEWISYIGSSGNTFYYADSVKGRFTISRDNANNLLYLQMTSLRAEDTAVYYCAREEGDFWSAVDSWGQGTLVTVSS VL: DIQLTQSPSFLSASVGDRVTITCWASQGISSYLAWYQQKPGKAPKLLIHTASTLQSGVPSRFSGSGSGTEFTLTISNLQPEDFATYYCQQLNSYPFTFGPGTKVDIK", "ASSAY_ENDPOINT": "t1/2", "READOUT_VALUE": 40}
